- Tested on: A549
- method: Cytotoxicity against human A549 cells after 72 hrs by CCK-8 assay
- Assay type: functional, cell-based
- runParameters: A549, 72 h
Item-by-item account of IC50
property: IC50

smiles: COc1cc2ncnc(Nc3ccc(F)c(Cl)c3)c2cc1OCCN1CC(OC)C1
measurementTarget: A549
property: IC50
recordedMeasurement: > 50 µM
--
smiles: COc1cc2ncnc(Nc3ccc(F)c(Cl)c3)c2cc1OCCN1CC2(C1)CS(=O)(=O)C2
measurementTarget: A549
property: IC50
recordedMeasurement: > 50 µM
--
smiles: COc1cc2ncnc(Nc3ccc(F)c(Cl)c3)c2cc1OCCCN1CCC2(COC2)C1
measurementTarget: A549
property: IC50
recordedMeasurement: > 50 µM
--
smiles: COc1cc2ncnc(Nc3ccc(F)c(Cl)c3)c2cc1OCCN1CC2(CCO2)C1
measurementTarget: A549
property: IC50
recordedMeasurement: > 50 µM
--
smiles: COc1cc2ncnc(Nc3ccc(F)c(Cl)c3)c2cc1OCCCN1CC2(COC2)C1
measurementTarget: A549
property: IC50
recordedMeasurement: 31.8 µM
--
smiles: COc1cc2ncnc(Nc3ccc(F)c(Cl)c3)c2cc1OCCCN1CC(O)C1
measurementTarget: A549
property: IC50
recordedMeasurement: > 50 µM
--
smiles: COc1cc2ncnc(Nc3ccc(F)c(Cl)c3)c2cc1OCCCN1CC2(CSC2)C1
measurementTarget: A549
property: IC50
recordedMeasurement: 9.5 µM
--
smiles: COc1cc2ncnc(Nc3ccc(F)c(Cl)c3)c2cc1OCCN1CC2(CSC2)C1
measurementTarget: A549
property: IC50
recordedMeasurement: 4.8 µM
--
smiles: COc1cc2ncnc(Nc3ccc(F)c(Cl)c3)c2cc1OCCN1CC(O)C1
measurementTarget: A549
property: IC50
recordedMeasurement: > 50 µM
--
smiles: COc1cc2ncnc(Nc3ccc(F)c(Cl)c3)c2cc1OCCN1CC2(COC2)C1
measurementTarget: A549
property: IC50
recordedMeasurement: > 50 µM

###

- Tested on: A549
- method: Cytotoxicity against human A549 cells after 72 hrs by CCK-8 assay
- Assay type: functional, cell-based
- runParameters: A549, 72 h
property: IC50 (µM)

smiles: COc1cc2ncnc(Nc3ccc(F)c(Cl)c3)c2cc1OCCCN1CC2(CCO2)C1
unitsLabel: µM
recordedMeasurement: 25.7
//
smiles: COc1cc2ncnc(Nc3ccc(F)c(Cl)c3)c2cc1OCCCN1CC2(C1)CS(=O)(=O)C2
unitsLabel: µM
recordedMeasurement: 25.2
//
smiles: COc1cc2ncnc(Nc3ccc(F)c(Cl)c3)c2cc1OCCCN1CC(OC)C1
unitsLabel: µM
recordedMeasurement: 25.1

###

Item-by-item account of IC50
- measurementTarget: Epidermal growth factor receptor (Homo sapiens, UniProt P00533)
- Sequence (P00533 whole entry): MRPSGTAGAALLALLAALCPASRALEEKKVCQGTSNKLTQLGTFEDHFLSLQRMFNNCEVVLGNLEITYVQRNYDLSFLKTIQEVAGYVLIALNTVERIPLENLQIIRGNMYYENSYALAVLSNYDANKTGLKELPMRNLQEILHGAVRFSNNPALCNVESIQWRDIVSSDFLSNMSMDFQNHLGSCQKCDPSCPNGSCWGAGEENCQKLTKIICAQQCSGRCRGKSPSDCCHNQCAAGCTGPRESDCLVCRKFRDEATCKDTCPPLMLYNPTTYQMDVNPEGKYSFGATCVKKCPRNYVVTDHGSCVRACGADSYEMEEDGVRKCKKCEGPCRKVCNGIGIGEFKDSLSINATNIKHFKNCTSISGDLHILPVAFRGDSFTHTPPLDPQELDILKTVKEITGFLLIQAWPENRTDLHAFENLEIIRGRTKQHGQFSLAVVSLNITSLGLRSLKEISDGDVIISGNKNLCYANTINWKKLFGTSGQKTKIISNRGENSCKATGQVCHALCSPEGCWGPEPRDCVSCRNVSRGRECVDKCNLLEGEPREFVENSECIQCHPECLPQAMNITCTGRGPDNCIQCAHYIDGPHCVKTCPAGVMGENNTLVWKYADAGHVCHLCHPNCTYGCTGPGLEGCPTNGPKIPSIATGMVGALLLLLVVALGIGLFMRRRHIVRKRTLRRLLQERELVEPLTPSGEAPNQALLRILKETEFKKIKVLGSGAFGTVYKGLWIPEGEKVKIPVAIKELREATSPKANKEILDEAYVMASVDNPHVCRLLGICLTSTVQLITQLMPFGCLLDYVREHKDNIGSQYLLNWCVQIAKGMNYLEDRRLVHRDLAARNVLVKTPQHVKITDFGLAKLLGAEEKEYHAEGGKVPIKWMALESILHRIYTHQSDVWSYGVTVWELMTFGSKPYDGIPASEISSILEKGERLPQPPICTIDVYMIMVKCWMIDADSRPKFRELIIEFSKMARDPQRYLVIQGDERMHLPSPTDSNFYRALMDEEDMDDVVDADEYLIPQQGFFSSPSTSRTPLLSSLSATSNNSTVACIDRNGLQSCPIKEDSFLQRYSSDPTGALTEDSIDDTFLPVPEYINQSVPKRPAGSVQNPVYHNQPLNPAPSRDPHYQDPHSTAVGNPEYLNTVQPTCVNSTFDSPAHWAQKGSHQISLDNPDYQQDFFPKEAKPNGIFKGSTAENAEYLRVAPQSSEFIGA

smiles: COc1cc2ncnc(Nc3ccc(F)c(Cl)c3)c2cc1OCCCN1CC(OC)C1
measurementTarget: Epidermal growth factor receptor (Homo sapiens, UniProt P00533)
unitsLabel: nM
IC50: 34
--
smiles: COc1cc2ncnc(Nc3ccc(F)c(Cl)c3)c2cc1OCCN1CC2(C1)CS(=O)(=O)C2
measurementTarget: Epidermal growth factor receptor (Homo sapiens, UniProt P00533)
unitsLabel: nM
IC50: 158
--
smiles: COc1cc2ncnc(Nc3ccc(F)c(Cl)c3)c2cc1OCCCN1CC2(COC2)C1
measurementTarget: Epidermal growth factor receptor (Homo sapiens, UniProt P00533)
unitsLabel: nM
IC50: 56
--
smiles: COc1cc2ncnc(Nc3ccc(F)c(Cl)c3)c2cc1OCCCN1CC2(C1)CS(=O)(=O)C2
measurementTarget: Epidermal growth factor receptor (Homo sapiens, UniProt P00533)
unitsLabel: nM
IC50: 24
--
smiles: COc1cc2ncnc(Nc3ccc(F)c(Cl)c3)c2cc1OCCCN1CC2(CCO2)C1
measurementTarget: Epidermal growth factor receptor (Homo sapiens, UniProt P00533)
unitsLabel: nM
IC50: 36

###

- method: Aqueous solubility of the compound at 20 degC
- Type: physicochemical
- runParameters: water
property: log10 of solubility (log10 of the value in µg/mL)

smiles: COc1cc2ncnc(Nc3ccc(F)c(Cl)c3)c2cc1OCCCN1CC2(CSC2)C1
log10 of solubility: 1.41
--
smiles: COc1cc2ncnc(Nc3ccc(F)c(Cl)c3)c2cc1OCCCN1CCOCC1
log10 of solubility: 0.32
--
smiles: COc1cc2ncnc(Nc3ccc(F)c(Cl)c3)c2cc1OCCCN1CCC2(COC2)C1
log10 of solubility: 1.53
--
smiles: COc1cc2ncnc(Nc3ccc(F)c(Cl)c3)c2cc1OCCCN1CC2(C1)CS(=O)(=O)C2
log10 of solubility: 1.86
--
smiles: COc1cc2ncnc(Nc3ccc(F)c(Cl)c3)c2cc1OCCN1CC2(COC2)C1
log10 of solubility: 0.15
--
smiles: COc1cc2ncnc(Nc3ccc(F)c(Cl)c3)c2cc1OCCCN1CC2(CCO2)C1
log10 of solubility: 0.08
--
smiles: COc1cc2ncnc(Nc3ccc(F)c(Cl)c3)c2cc1OCCCN1CC2(COC2)C1
log10 of solubility: 1.45

###

- method: Aqueous solubility of the compound at 20 degC
- Assay type: physicochemical
- runParameters: water
Item-by-item account of solubility

smiles: COc1cc2ncnc(Nc3ccc(F)c(Cl)c3)c2cc1OCCN1CC2(CSC2)C1
solubility: < 1 µg/mL
//
smiles: COc1cc2ncnc(Nc3ccc(F)c(Cl)c3)c2cc1OCCN1CC2(C1)CS(=O)(=O)C2
solubility: < 1 µg/mL
//
smiles: COc1cc2ncnc(Nc3ccc(F)c(Cl)c3)c2cc1OCCN1CC2(CCO2)C1
solubility: < 1 µg/mL
